Assay Info: Terminal half life in C57BL/6 mouse
Format: ADME, organism-based
Conditions: in vivo, read-out: beta t1/2 (converted)
Quantity Name: half-life (h)
Number in h, nothing else.

### Prompt Item under review: CCOC(=O)c1c(C)[n+]([O-])c2ccc(Cl)cc2[n+]1[O-] . Reported half-life?
### Response 4

----------
Test system: Mycobacterium tuberculosis
Assay Info: Antibacterial activity against p-aminosalicylic acid-resistant Mycobacterium tuberculosis by microplate Alamar Blue assay
Format: functional
Quantity Name: MIC (µg/mL)
Number in µg/mL, nothing else.

Study these solved cases before continuing.
{"Line Notation": "Cc1ccc2c(c1)[n+]([O-])c(C(=O)OCc1ccccc1)c(C)[n+]2[O-]", "Reading Unit": "µg/mL", "MIC": 0.78}
{"Line Notation": "COCCOC(=O)c1c(C)[n+]([O-])c2cc(Cl)c(Cl)cc2[n+]1[O-]", "Reading Unit": "µg/mL", "MIC": 0.78}
{"Line Notation": "CCOC(=O)c1c(C)[n+]([O-])c2ccc(C)cc2[n+]1[O-]", "Reading Unit": "µg/mL", "MIC": 3.13}
{"Line Notation": "COC(=O)c1c(C)[n+]([O-])c2cc(C)c(C)cc2[n+]1[O-]", "Reading Unit": "µg/mL", "MIC": 3.13}
{"Line Notation": "Cc1c(C(=O)OCc2ccccc2)[n+]([O-])c2ccccc2[n+]1[O-]", "Reading Unit": "µg/mL", "MIC": 0.2}

Let's switch to this compound now.
### Prompt API: value(readout= MIC, system= Mycobacterium tuberculosis, query= COC(=O)c1c(C)[n+]([O-])c2ccc(C)cc2[n+]1[O-] )
### Response 3.13
